Where do the numbers come from? From ChEMBL document CHEMBL1201862.

System: IGROV-1
MEASUREMENT_DESCRIPTION: NCI tumour cell line growth inhibition, 48 h
Calls of active or inactive are those of the source. No stated cut-off is given here; in the data, active = GI50 up to about 1.1 µM and inactive = higher.
Listing of entries alongside the reported GI50.
ASSAY_READOUT: GI50

>>> print(df.to_string())
                                   compound                value
0      Cc1cccc(C(=O)c2cccc3ccccc23)c1C(=O)O  > 100 µM (inactive)
1  Cc1ccccc1/N=N/c1ccc(N/N=C2/CCCNC2=O)c(C)c1  > 100 µM (inactive)
2  COc1ccc2cc3[n+](cc2c1OC)CCc1cc2c(cc1-3)OCO2   55.5 µM (inactive)
3  O=C(O)CCC(NC(=O)/C(=C/c1ccccc1)NC(=O)c1ccccc1)C(=O)O (stereo not given)  > 100 µM (inactive)
4               O=c1cnn(C/C=C/CO)c(=O)[nH]1  > 100 µM (inactive)
5  C/C(CCn1[nH]c(=O)ccc1=O)=N\NC(=O)C(=O)NN  > 100 µM (inactive)
6  CCCOP1(=O)C=C(C)C(Cl)=C(C)C1 (stereo not given)   34.6 µM (inactive)
7  CSc1ccc2c(cc1=O)[C@@H](NC(C)=O)CCc1cc(O)c(O)c(O)c1-2   15.2 µM (inactive)
8  N#CC(C#N)=C1/C(=C/C=C/C=C/C=C/c2ccc(N3CCCCC3)s2)S(=O)(=O)c2ccccc21  > 100 µM (inactive)
9  COC(=O)C(=O)C(C(=O)C(=O)Nc1cc([N+](=O)[O-])ccc1C#N)c1nc2ccccc2nc1O (stereo not given)  > 100 µM (inactive)

----------
System: SNB-75
MEASUREMENT_DESCRIPTION: NCI tumour cell line growth inhibition, 48 h
Active and inactive are the calls of the source. Rule as the data show it: active = GI50 up to about 1.1 µM and inactive = higher.
Item-by-item account of GI50
ASSAY_READOUT: GI50

COMPOUND	TARGET_ENTITY	VALUE
Cc1ccc(-c2c3nc(c(-c4ccc(C)cc4)c4ccc([nH]4)c(-c4ccc(OCC5COC(C)(C)O5)cc4)c4nc(c(-c5ccc(C)cc5)c5ccc2[nH]5)C=C4)C=C3)cc1 (stereo not drawn)	SNB-75	10.2 µM (inactive)
Cc1c2c(n(CCc3ccc(Cl)cc3)c1C)NN=C(C#N)S2(=O)=O	SNB-75	> 100 µM (inactive)
COc1ccc(/C=N/n2c(Cc3ccc(Cl)cc3)n[nH]c2=O)c(OC)c1	SNB-75	15.9 µM (inactive)
O/N=C1/C2CC3CC1(c1ccccc1)CC(/C3=N/O)/C2=N\O (stereo not drawn)	SNB-75	> 100 µM (inactive)
CN(C)c1ccc(-c2c(C#N)c(-c3ccccc3)n(NS(=O)(=O)c3ccccc3)c(=O)c2C#N)cc1	SNB-75	48.5 µM (inactive)
CC(C)[Si](OC1=CCC[C@H]2NC(=O)[C@@H](Cc3ccccc3)[C@@]12C)(C(C)C)C(C)C	SNB-75	15.4 µM (inactive)
CC(C)(C)C(=O)CP(=O)(O)O	SNB-75	> 100 µM (inactive)
COC(=O)C(/C(=N/N)C(=O)Nc1cccc(O)c1)c1nc2ccccc2nc1O (stereo not drawn)	SNB-75	> 100 µM (inactive)
CC[C@@]1(OP(=O)(O)O)C(=O)OCc2c1cc1n(c2=O)Cc2cc3ccccc3nc2-1	SNB-75	0.16 µM (active)
COc1cc(OC)cc(C(=O)CC(=O)c2cc(OC)cc(OC)c2)c1	SNB-75	> 100 µM (inactive)
COc1cccc(/C=N/n2c(-c3ccccc3)n[nH]c2=O)c1	SNB-75	34.3 µM (inactive)
C/C(CC(O)(C(F)(F)F)C(F)(F)F)=N\O	SNB-75	> 10 µM (inactive)
CCOC(=O)c1nc2c3c(ncn2n1)Oc1c(c(-c2ccccc2)nn1-c1ccccc1)C3c1ccc(Cl)cc1 (stereo not drawn)	SNB-75	> 100 µM (inactive)
CN(C)C(=S)/N=c1\ss/c(=N\S(=O)(=O)c2ccccc2)n1N(C)C	SNB-75	> 100 µM (inactive)
COc1ccc(SCc2cc(OCc3ccccc3)c(OCc3ccccc3)c(OCc3ccccc3)c2)cc1	SNB-75	1.58 µM (inactive)
S=C(N/N=C/c1ccccn1)N1CC2CCC(CC2)C1	SNB-75	0.2 µM (active)
CCc1ccccc1NC(=O)CC1NC(=O)CS1 (stereo not drawn)	SNB-75	37.5 µM (inactive)
O=c1cc(CO)oc2c3c(cc(O)c12)OCC(COC1OC(CO)C(O)C(O)C1O)=CC3 (stereo not drawn)	SNB-75	> 100 µM (inactive)
O=[N+]([O-])c1cc(Cl)c(Cl)cc1[N+](=O)[O-]	SNB-75	3.6 µM (inactive)
O=C1OCC2=Nc3cccc4cccc(c34)N12	SNB-75	> 100 µM (inactive)
OCCNCCOc1ccc(/C(=C(/Cl)c2ccccc2)c2ccccc2)cc1	SNB-75	2.37 µM (inactive)
c1ccc2c(c1)[nH]c1c[nH]c3c4cccnc4nc-3c12	SNB-75	18.2 µM (inactive)
O=C1C(c2c(O)[nH]c3ccc(Br)cc23)=Nc2ccccc21	SNB-75	11.2 µM (inactive)
CN1CCCCCC(=N\O)/C(=N/O)CCCCC1	SNB-75	> 100 µM (inactive)
N#CC(C#N)=C1CCCCc2ccc([N+](=O)[O-])cc21	SNB-75	> 100 µM (inactive)
CC(C)=CCC1=C(OCC(=O)O)C(=O)c2ccccc2C1=O	SNB-75	24.4 µM (inactive)
CC(C)OC(=O)[C@H]1ON2O[C@H](O[C@@H]3CCCC[C@H]3c3ccccc3)C([Si](C)(C)c3ccccc3)[C@H]3OC(=O)[C@@H]1C32 (stereo partly drawn)	SNB-75	> 100 µM (inactive)
CSC1=NN(C(C)=O)C(C(OC(C)=O)C(OC(C)=O)C(OC(C)=O)C(COC(C)=O)OC(C)=O)S1 (stereo not drawn)	SNB-75	> 100 µM (inactive)
Oc1ccc2ccccc2c1/N=N/c1ccsc1	SNB-75	> 100 µM (inactive)
COC(=O)C(NC(=O)C(CC(=O)OC(C)(C)C)NC(=O)OC(C)(C)C)C(O)c1ccccc1 (stereo not drawn)	SNB-75	> 100 µM (inactive)
O=C(/C=C/c1ccc2c(c1)OCO2)CC(=O)/C=C/c1ccc2c(c1)OCO2	SNB-75	> 100 µM (inactive)
COC12c3ccccc3-c3ccccc3C1[C@@H](C(=O)O)[C@H]2C(=O)O (stereo partly drawn)	SNB-75	> 10 µM (inactive)
COc1nc2ncc([C@@H](OC(C)=O)[C@@H](COC(C)=O)OC(C)=O)nc2c(=O)n1C	SNB-75	> 100 µM (inactive)
COC(=O)C1c2c(c3ccccc3n2C(=O)OC)CCN2CCC1C(S(=O)(=O)c1ccccc1)C2=O (stereo not drawn)	SNB-75	> 100 µM (inactive)
COC(=O)[C@H](Cc1ccccc1)NC(=O)N(CCN(CCC#N)C(=O)N[C@H](C(=O)OC)C(C)C)c1ccccc1	SNB-75	> 100 µM (inactive)
O=c1[nH]cnc2c1sc1nc3ccccc3n12	SNB-75	49.3 µM (inactive)
CC(C)N(CCn1c2c3ccccc3ccc2c2oc(=O)c3ccccc3c21)C(C)C	SNB-75	25.2 µM (inactive)
C=C1C(O)C[C@H](OC(C)=O)[C@]2(C)C1C(OC(C)=O)[C@]1(C(C)(C)O)CC(O)C(C)=C1[C@@H](OC(=O)c1ccccc1)C2OC(C)=O (stereo partly drawn)	SNB-75	> 10 µM (inactive)

----------
System: MOLT-4
MEASUREMENT_DESCRIPTION: NCI tumour cell line growth inhibition, 48 h
Active and inactive are the calls of the source. No stated cut-off is given here; in the data, active = GI50 up to about 1.1 µM and inactive = higher.
Outcome codes: active, inactive

>>> print(df.to_string())
                                    compound     group
 0  COC12c3ccccc3-c3ccccc3C1[C@@H](C(=O)O)[C@H]2C(=O)O (some centres undefined)  inactive
 1          CC(C)=CC(=O)Cc1nc2ccccc2[nH]c1=O  inactive
 2      O=c1c2cc([N+](=O)[O-])ccc2n2n1CCCCC2  inactive
 3      Cc1cc(C)c2c(O)cc(-c3ccc(Cl)cc3)nc2n1  inactive
 4  CCOC(=O)CC1c2ccc(O)cc2OC(=O)C1c1ccc(N)cc1 (centres undefined)  inactive
 5         CC(C)(C)OC(=O)N/C(C=O)=C\C1CCCCC1  inactive
 6  CCC1(OC(=O)CN2CCN(CCO)CC2)C(=O)OCc2c1cc1n(c2=O)Cc2cc3ccccc3nc2-1 (centres undefined)    active
 7    CCCCc1ccc(Nc2nc(N)c3ncn(COCCO)c3n2)cc1  inactive
 8  O=C(CC(=O)N1N=C(N(c2ccccc2)c2ccccc2)CC1c1ccccc1)Nc1ccccc1 (centres undefined)  inactive
 9  CCOP(=S)(OCC)Oc1ccc2c(c1)OC(=O)C1(Cl)C2(C)C2(Cl)C(=O)Oc3cc(OP(=S)(OCC)OCC)ccc3C12C (centres undefined)  inactive
10  C=C=CC(NC(=O)c1ccccc1)(C(=O)O)C(F)(F)F (centres undefined)  inactive
11   N=C(Nc1nc(-c2ccccn2)cc2ccccc12)c1ccccn1    active
12           CN(C)CCCNC(=O)N/N=C/c1ccc(O)cc1  inactive
13  CC(=O)c1ccc2c3c1[C@H]1O[C@H]1c1cccc(c1-3)[C@@H]1O[C@H]21  inactive
14  Cc1ccccc1/N=N/c1ccc(N/N=C2/CCCNC2=O)c(C)c1  inactive
15  CC(C)(Cc1ccccc1)N1C(=O)N1C(C)(C)Cc1ccccc1  inactive
16  COc1ccc2ccccc2c1CN1CCOCCOCCN(Cc2c(OC)ccc3ccccc23)CCOCCOCC1  inactive
17           Nc1nc(SCc2ccccc2Cl)c2[nH]cnc2n1  inactive
18                 CSc1s[s+]c(SC)c1-c1ccccc1  inactive
